# Tested on: MCF-7
# Experimental protocol: Cell growth inhibition, MCF-7
# Type: cell-based
# Run parameters: Homo sapiens, MCF7, read-out: Antiproliferative activity EC50 (μM), MCF-7
Measured property: EC50

Exercise: Need EC50, item CC(C)(C)c1ccc(-c2cc(CNCC3CCNCC3)sc2-c2ccc(C(C)(C)C)cc2)cc1
Key: ~3 µM

* * *

Reported activity reduction as compared to 12 values for a set of compounds
# Target desc: HAT domain of human p300 (Homo sapiens, UniProt Q09472)
# Sequence (Q09472 1195-1673): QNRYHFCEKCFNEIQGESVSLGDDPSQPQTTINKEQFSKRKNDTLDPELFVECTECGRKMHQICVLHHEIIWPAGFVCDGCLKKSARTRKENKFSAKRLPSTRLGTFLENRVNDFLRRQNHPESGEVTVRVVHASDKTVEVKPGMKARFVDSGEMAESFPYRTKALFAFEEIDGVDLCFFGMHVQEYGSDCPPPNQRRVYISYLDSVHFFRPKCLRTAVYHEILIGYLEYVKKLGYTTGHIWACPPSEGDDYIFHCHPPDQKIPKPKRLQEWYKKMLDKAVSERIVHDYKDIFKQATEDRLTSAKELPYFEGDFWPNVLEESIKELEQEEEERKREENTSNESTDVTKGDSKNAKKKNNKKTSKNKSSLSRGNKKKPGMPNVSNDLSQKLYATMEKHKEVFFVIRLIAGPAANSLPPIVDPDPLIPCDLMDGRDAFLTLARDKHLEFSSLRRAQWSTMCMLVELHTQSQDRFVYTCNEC
# Experimental protocol: Inhibition of p300-HAT
# Assay type: biochemical
# Run parameters: ratio of p300 HAT IC50 to that of compound 12

Solved cases (3 shown):
CC(C)(C)c1ccc(-c2sc(CNCC3CCNCC3)c(Br)c2-c2ccc(C(C)(C)C)cc2)cc1 [Compound 33]: ~ 3 fold
CC(C)(C)c1ccc(-c2cc(CNC3CCNCC3)sc2-c2ccc(C(C)(C)C)cc2)cc1 [Compound 14]: ~ 8 fold
CC(C)(C)c1ccc(-c2cc(CNCCC3CCNCC3)sc2-c2ccc(C(C)(C)C)cc2)cc1 [Compound 15]: ~3 fold

Exercise: Need activity reduction as compared to 12, item CC(C)(C)c1ccc(-c2cc(CNCC3CCNCC3)sc2-c2ccc(CN)cc2)cc1 [Compound 26]
Key: ~ 3 fold

* * *

# Target desc: HAT domain of human p300 (Homo sapiens)
# Sequence (Q09472 1195-1673): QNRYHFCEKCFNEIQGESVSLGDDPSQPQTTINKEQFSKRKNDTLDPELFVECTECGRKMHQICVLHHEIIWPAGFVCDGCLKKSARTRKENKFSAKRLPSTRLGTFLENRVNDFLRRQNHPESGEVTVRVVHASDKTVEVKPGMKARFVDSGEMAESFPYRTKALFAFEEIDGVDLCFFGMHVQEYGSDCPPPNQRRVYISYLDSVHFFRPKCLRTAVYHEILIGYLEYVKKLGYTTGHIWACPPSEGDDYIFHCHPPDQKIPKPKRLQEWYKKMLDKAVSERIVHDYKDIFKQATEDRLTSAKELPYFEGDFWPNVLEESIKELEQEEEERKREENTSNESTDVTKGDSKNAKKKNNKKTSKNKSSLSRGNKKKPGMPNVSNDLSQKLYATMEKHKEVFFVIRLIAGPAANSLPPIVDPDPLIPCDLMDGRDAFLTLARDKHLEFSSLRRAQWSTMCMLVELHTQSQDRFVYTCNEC
# Experimental protocol: Inhibition of p300-HAT
# Type: biochemical
# Run parameters: tested up to 10 μM
Measured property: inhibitory activity against p300 HAT (in words)

CC(C)(C)c1ccc(-c2cc(CN3CCOCC3)sc2-c2ccc(C(C)(C)C)cc2)cc1: Loss of activity
CCCCc1ccc(-c2cc(CNCC3CCNCC3)sc2-c2ccc(CCCC)cc2)cc1: Loss of activity
